target: T1, recombinant HIV-1 SF2 Nef(2-210) protein (HIV-1 isolate SF2, UniProt P03407 2-210); experiment: other fluorescence titration; 0.5 µM fluoresceinyl-labeled peptide titrated with recombinant Nef(2-210); compared with a buffer control titration; fit of a simple bimolecular model with ligand depletion; conditions: both partners purified
T1 construct: Nef protein of HIV-1 isolate SF2, residues 2-210; also called purified Nef protein; source: recombinant, purified, prepared as described in [68]
T1 sequence (P03407 2-210): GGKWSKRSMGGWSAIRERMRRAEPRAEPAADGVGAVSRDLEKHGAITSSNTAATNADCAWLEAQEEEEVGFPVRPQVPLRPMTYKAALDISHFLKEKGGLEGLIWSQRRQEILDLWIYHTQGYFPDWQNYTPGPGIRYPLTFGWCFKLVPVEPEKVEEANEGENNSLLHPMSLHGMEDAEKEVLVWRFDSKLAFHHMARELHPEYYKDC
Where no end group is shown, it is not given here. The star is where a group is joined. FITC = O=C1OC2(c3ccc(O)cc3Oc3cc(O)ccc32)c2ccc(NC(=S)*)cc21
Test Readout: pKd
To interpret pKd, take it as minus log10 of a concentration measured in moles per litre.

For the binder shown here, {FITC}-TTSAVKELHGEFKTTA (peptide, UniProt Q13491-1 112-127, looked up, GPM6B cytoplasmic loop, residues 112-127; numbers count on: UniProtKB entry Q13491-1; also called FITC-labeled GPM6B peptide; source: synthetic peptide) [fluoresceinyl-labeled peptide GPM6B(112-127)] , give the reported pKd. 6.19
